Tested on: PC3 cells
experiment: XTT assay for cell viability, PC3 cells
Format: cell-based, human
run_conditions: Homo sapiens, PC-3, cell viability

molecule	tested_target	IC50
Cc1ccncc1-c1ccc2c(N3CCOCC3)nc(-c3ccc(NC(=O)Nc4ccc(C(=O)N5CCC(N(C)C)CC5)cc4)cc3)nc2c1	PC3 cells	201 to 10000 nM
CS(=O)(=O)c1cccc(-c2ccc3c(N4CCOCC4)nc(-c4ccc(NC(=O)Nc5ccc(C(N)=O)cc5)cc4)nc3c2)c1	PC3 cells	501 to 5000 nM
CN(C)C(=O)c1ccc(NC(=O)Nc2ccc(-c3nc(N4CCOCC4)c4ncc(-c5cccnc5F)cc4n3)cn2)cc1	PC3 cells	201 to 10000 nM
CN(C)C(=O)c1ccc(NC(=O)Nc2ccc(-c3nc(N4CCOCC4)c4ccc(-c5cccnc5F)cc4n3)cn2)cc1	PC3 cells	100 to 500 nM
CNC(=O)c1ccc(NC(=O)Nc2ccc(-c3nc(N4CCOCC4)c4ncc(-c5cnn(C)c5)cc4n3)cc2)cc1	PC3 cells	201 to 10000 nM
CN(C)C(=O)c1ccc(NC(=O)Nc2ccc(-c3nc(N4CCOCC4)c4ccc(-c5cnc(N(C)C)nc5)cc4n3)cc2)cc1	PC3 cells	201 to 10000 nM
CC1CN(c2nc(-c3ccc(NC(=O)Nc4ccc(C(=O)N(C)C)cc4)cc3)nc3cc(-c4cncnc4)ccc23)CC(C)O1 (centres unmarked)	PC3 cells	< 100 nM
Cc1noc(C)c1-c1cnc2c(N3CCOCC3)nc(-c3ccc(NC(=O)Nc4ccc(C(=O)N(C)C)cc4)c(F)c3)nc2c1	PC3 cells	201 to 10000 nM
CN(C)C(=O)c1ccc(NC(=O)Nc2ccc(-c3nc(N4CCOCC4)c4cc(F)c(-c5cccnc5F)cc4n3)cn2)cc1	PC3 cells	< 100 nM
Cc1ccncc1-c1ccc2c(N3CCOCC3)nc(-c3ccc(NC(=O)Nc4ccc(C(=O)N(C)C)cc4)cc3)nc2c1	PC3 cells	100 to 500 nM
CN(C)C(=O)c1ccc(NC(=O)Nc2ccc(-c3nc(N4CCOCC4)c4ncc(-c5cncnc5)cc4n3)cc2F)cc1	PC3 cells	201 to 10000 nM
CN(C)C(=O)c1ccc(NC(=O)Nc2ccc(-c3nc(N4CCOCC4)c4ccc(-c5ccncc5)cc4n3)cc2F)cc1	PC3 cells	201 to 10000 nM
CN(C)C(=O)c1ccc(NC(=O)Nc2ccc(-c3nc(N4CCOCC4)c4ccc(-c5ccco5)cc4n3)c(F)c2F)cc1	PC3 cells	< 100 nM
CC(O)c1ccc(-c2ccc3c(N4CCOCC4)nc(-c4ccc(NC(=O)Nc5ccc(C(=O)N(C)C)cc5)cc4)nc3c2)o1 (centres unmarked)	PC3 cells	201 to 10000 nM
CN1CCN(C(=O)c2ccc(NC(=O)Nc3ccc(-c4nc(N5CCOCC5)c5ccc(-c6cncnc6)cc5n4)cc3)cc2)CC1	PC3 cells	501 to 5000 nM
CN(C)C(=O)c1ccc(NC(=O)Nc2ccc(-c3nc(N4CCOCC4)c4ncc(-c5cnn(C)c5)cc4n3)cc2)cc1	PC3 cells	< 100 nM
CN(C)C(=O)c1ccc(NC(=O)Nc2ccc(-c3nc(N4CCOCC4)c4ccc(C(C)(C)O)cc4n3)cc2)cc1	PC3 cells	201 to 10000 nM
CN(C)C(=O)c1ccc(NC(=O)Nc2ccc(-c3nc(N4CCOCC4)c4ccc(-c5cccc(O)c5)cc4n3)cc2)cc1	PC3 cells	100 to 500 nM
CN1CCN(C(=O)c2ccc(NC(=O)Nc3ccc(-c4nc(N5CCOCC5)c5ccc(-c6ccncc6)cc5n4)cc3)cc2)CC1	PC3 cells	100 to 500 nM
CN(C)C(=O)c1ccc(NC(=O)Nc2ccc(-c3nc(N4CCOCC4)c4ccc(-c5cccc(S(C)(=O)=O)c5)cc4n3)c(F)c2)cc1	PC3 cells	201 to 10000 nM

====

tested_target: PI3Kα (wild-type), P110/P85α (Homo sapiens)
Construct: made in house; host or cells: SF9 insect cells
experiment: PI3 Kinase TR-FRET assay, PI3Kα (wild-type)
Format: biochemical
Listing of recorded IC50 by entry.

chemical_string	tested_target	IC50
CN1CCN(C(=O)c2ccc(-c3ccc4c(N5CCOCC5)nc(-c5ccc(NC(=O)Nc6ccc(C(=O)N(C)C)cc6)cc5)nc4c3)o2)CC1	PI3Kα (wild-type), P110/P85α (Homo sapiens)	< 50 nM
CN(C)C(=O)c1ccc(NC(=O)Nc2ccc(-c3nc(N4CCOCC4)c4ncc(-c5cnc(N)nc5)cc4n3)cc2F)cc1	PI3Kα (wild-type), P110/P85α (Homo sapiens)	< 50 nM
CN(C)C(=O)c1ccc(NC(=O)Nc2ccc(-c3nc(N4CCOCC4)c4ccc(-c5cccnc5)cc4n3)cc2)cc1F	PI3Kα (wild-type), P110/P85α (Homo sapiens)	< 50 nM
Cc1ccc(-c2ccc3c(N4CCOCC4)nc(-c4ccc(NC(=O)Nc5ccc(C(=O)N(C)C)cc5F)cc4)nc3c2)cn1	PI3Kα (wild-type), P110/P85α (Homo sapiens)	< 50 nM
CN(C)C(=O)c1ccc(NC(=O)Nc2ccc(-c3nc(N4CCOCC4)c4ccc(-c5ccc(C#N)o5)cc4n3)c(F)c2)cc1	PI3Kα (wild-type), P110/P85α (Homo sapiens)	< 50 nM
CN(C)C(=O)c1ccc(NC(=O)Nc2ccc(-c3nc(N4CCOCC4)c4ccc(-c5ccccn5)cc4n3)c(F)c2)cc1	PI3Kα (wild-type), P110/P85α (Homo sapiens)	< 50 nM
COc1ncc(-c2ccc3c(N4CCOCC4)nc(-c4ccc(NC(=O)Nc5ccc(C(=O)N(C)C)cc5)cc4F)nc3c2)cn1	PI3Kα (wild-type), P110/P85α (Homo sapiens)	< 50 nM

====

tested_target: PI3Kα (wild-type), P110/P85α (Homo sapiens, UniProt P42336)
Sequence (P42336 whole entry): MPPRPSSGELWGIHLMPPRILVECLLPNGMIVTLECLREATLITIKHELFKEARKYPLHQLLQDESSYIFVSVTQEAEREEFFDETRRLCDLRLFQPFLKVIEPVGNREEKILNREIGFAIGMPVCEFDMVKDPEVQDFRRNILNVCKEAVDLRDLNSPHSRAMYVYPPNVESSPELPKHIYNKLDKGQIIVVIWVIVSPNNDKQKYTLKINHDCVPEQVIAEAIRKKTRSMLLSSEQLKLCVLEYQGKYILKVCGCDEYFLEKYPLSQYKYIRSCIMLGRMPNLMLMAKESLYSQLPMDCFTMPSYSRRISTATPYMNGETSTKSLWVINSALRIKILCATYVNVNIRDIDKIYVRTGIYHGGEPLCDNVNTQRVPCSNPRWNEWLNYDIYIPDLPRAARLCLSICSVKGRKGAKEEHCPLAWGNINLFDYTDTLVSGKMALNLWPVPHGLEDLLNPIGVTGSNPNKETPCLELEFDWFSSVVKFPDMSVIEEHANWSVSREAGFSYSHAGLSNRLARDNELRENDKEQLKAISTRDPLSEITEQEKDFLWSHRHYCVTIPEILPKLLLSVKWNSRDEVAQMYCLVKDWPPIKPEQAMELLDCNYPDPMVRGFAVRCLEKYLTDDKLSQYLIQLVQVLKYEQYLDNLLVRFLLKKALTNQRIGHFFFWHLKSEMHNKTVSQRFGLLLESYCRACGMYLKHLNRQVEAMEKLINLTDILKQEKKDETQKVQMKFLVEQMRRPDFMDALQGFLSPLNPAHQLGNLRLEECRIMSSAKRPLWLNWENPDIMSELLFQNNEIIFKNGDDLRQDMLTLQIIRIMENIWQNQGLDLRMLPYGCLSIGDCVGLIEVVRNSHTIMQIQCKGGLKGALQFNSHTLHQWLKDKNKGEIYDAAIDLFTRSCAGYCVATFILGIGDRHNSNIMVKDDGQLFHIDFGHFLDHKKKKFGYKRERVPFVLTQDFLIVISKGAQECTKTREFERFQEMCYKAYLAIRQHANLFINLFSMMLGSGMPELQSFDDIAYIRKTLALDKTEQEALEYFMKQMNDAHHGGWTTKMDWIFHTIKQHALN
Sequence (P27986 whole entry partner): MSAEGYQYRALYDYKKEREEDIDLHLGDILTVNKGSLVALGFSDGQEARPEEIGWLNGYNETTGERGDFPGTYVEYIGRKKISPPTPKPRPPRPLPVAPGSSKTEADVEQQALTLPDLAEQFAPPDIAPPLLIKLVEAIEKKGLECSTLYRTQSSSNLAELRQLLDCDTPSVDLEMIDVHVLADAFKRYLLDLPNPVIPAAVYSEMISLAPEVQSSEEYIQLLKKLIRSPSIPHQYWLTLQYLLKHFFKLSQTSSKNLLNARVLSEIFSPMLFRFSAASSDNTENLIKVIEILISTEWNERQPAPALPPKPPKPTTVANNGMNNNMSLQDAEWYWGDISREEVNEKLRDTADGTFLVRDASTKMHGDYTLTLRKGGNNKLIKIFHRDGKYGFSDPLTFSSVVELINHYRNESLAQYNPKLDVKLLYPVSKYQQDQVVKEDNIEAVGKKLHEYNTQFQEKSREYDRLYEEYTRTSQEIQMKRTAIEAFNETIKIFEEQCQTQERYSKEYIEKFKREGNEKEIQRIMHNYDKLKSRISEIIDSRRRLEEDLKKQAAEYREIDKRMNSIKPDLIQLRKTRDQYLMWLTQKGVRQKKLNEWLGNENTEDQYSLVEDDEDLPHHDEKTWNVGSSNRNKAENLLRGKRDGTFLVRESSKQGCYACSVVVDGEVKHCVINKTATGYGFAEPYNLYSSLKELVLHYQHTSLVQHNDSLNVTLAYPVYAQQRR
experiment: PI3 Kinase TR-FRET assay, PI3Kα (wild-type)
pIC50: −log10 of the molar value.

molecule	pIC50
CC(=O)Nc1ccc(NC(=O)Nc2ccc(-c3nc(N4CCOCC4)c4ccc(-c5ccc(C)o5)cc4n3)cc2)cc1 [Example 17]	6.70 to 7.30
CN1CCN(C(=O)c2ccc(NC(=O)Nc3ccc(-c4nc(N5CCOCC5)c5ccc(-c6cncnc6)cc5n4)cc3)cc2)CC1 [Example 79]	5.00 to 6.70
CN(C)CCNC(=O)c1ccc(NC(=O)Nc2ccc(-c3nc(N4CCOCC4)c4ccc(-c5cncnc5)cc4n3)cc2F)cc1 [Example 217]	> 7.30

====

tested_target: PI3Kα (wild-type), P110/P85α (Homo sapiens, UniProt P42336)
experiment: PI3 Kinase TR-FRET assay, PI3Kα (wild-type)
pIC50: −log10 of the molar value.

molecule	pIC50
CC(=O)c1ccc(-c2ccc3c(N4CCOCC4)nc(-c4ccc(NC(=O)Nc5ccc(C(=O)N(C)C)c(F)c5)cc4)nc3c2)o1	> 7.30
Cc1ccc(-c2ccc3c(N4CCOCC4)nc(-c4ccc(NC(=O)Nc5ccc(C(=O)N6CCC(N(C)C)C6)cc5)cc4)nc3c2)o1 (stereo in doubt)	6.70 to 7.30
CN(C)C(=O)c1ccc(NC(=O)Nc2ccc(-c3nc(N4CCOCC4)c4ccc(-c5cccc(NS(C)(=O)=O)c5)cc4n3)cc2)cc1	> 7.30
CN(C)C(=O)c1ccc(NC(=O)Nc2ccc(-c3nc(N4CCOCC4)c4ccc(-c5cncc(S(C)(=O)=O)c5)cc4n3)cc2)cc1	> 7.30
CN(C)C(=O)c1ccc(NC(=O)Nc2ccc(-c3nc(N4CCOCC4)c4ccc(-c5cccc(N(C)C)c5)cc4n3)cc2)cc1	> 7.30
CN(C)[C@@H]1CCN(C(=O)c2ccc(NC(=O)Nc3ccc(-c4nc(N5CCOCC5)c5ncc(-c6cnn(C)c6)cc5n4)cc3F)cc2)C1	> 7.30
CN1CCN(C(=O)c2ccc(NC(=O)Nc3ccc(-c4nc(N5CCOCC5)c5ccc(-c6ccsc6)cc5n4)cc3)cc2)CC1	6.70 to 7.30

====

Listing of recorded IC50 by entry.
System: PC3 cells
experiment: XTT assay for cell viability, PC3 cells
Format: cell-based, human
run_conditions: Homo sapiens, PC-3, cell viability
Procedure: Using a commercial kit from Sigma Aldrich (Catalog #X34251) and following its protocol, PC3 cells in the log phase of growth were employed and seeded at an optimal density of 1000 cell/well on to 96 well plates and incubated for 24 h followed by the addition of compounds of formula (I) in serial dilutions. Compound dilutions were made in DMSO. […] After the color formation, absorbance was measured at 465 nm in a Spectramax® Gemini spectrophotometer. […]

compound	IC50
CN(C)C(=O)c1ccc(NC(=O)Nc2ccc(-c3nc(N4CCOCC4)c4cc(F)c(-c5cncnc5)cc4n3)cc2F)cc1	201 to 10000 nM
CN(C)C(=O)c1ccc(NC(=O)Nc2ccc(-c3nc(N4CCOCC4)c4ccc(-c5ccco5)cc4n3)cc2)cc1	100 to 500 nM
COc1cc2nc(-c3ccc(NC(=O)Nc4ccc(C(=O)N(C)C)cc4)cc3)nc(N3CCOCC3)c2cc1OC	201 to 10000 nM
CN(C)C(=O)c1ccc(NC(=O)Nc2ccc(-c3nc(N4CCOCC4)c4ccc(-c5cncnc5)cc4n3)cc2)cc1	100 to 500 nM
Cc1noc(C)c1-c1ccc2c(N3CCOCC3)nc(-c3ccc(NC(=O)Nc4ccc(C(=O)N(C)C)cc4)cc3)nc2c1	201 to 10000 nM
CN(C)C(=O)c1ccc(NC(=O)Nc2ccc(-c3nc(N4CCOCC4)c4ccc(-c5cccc(S(C)(=O)=O)c5)cc4n3)cc2)cn1	100 to 500 nM
Cc1noc(C)c1-c1ccc2c(N3CCOCC3)nc(-c3ccc(NC(=O)Nc4ccc(C(=O)N5CCC(N(C)C)C5)cc4)cc3)nc2c1 (stereo in doubt)	201 to 10000 nM
COc1ccc(-c2ccc3c(N4CCOCC4)nc(-c4ccc(NC(=O)Nc5ccc(C(=O)N(C)C)c(F)c5)cc4)nc3c2)cn1	201 to 10000 nM
CN(C)C(=O)c1ccc(NC(=O)Nc2ccc(-c3nc(N4CCOCC4)c4ccc(-c5ccnnc5)cc4n3)cc2F)cc1	201 to 10000 nM
CN(C)C(=O)c1ccc(NC(=O)Nc2ccc(-c3nc(N4CCOCC4)c4ccc(-c5cncnc5)cc4n3)cc2F)cn1	201 to 10000 nM
CN(C)C(=O)c1ccc(NC(=O)Nc2ccc(-c3nc(N4CCOCC4)c4ncc(-c5cccc(S(C)(=O)=O)c5)cc4n3)cc2)cc1	< 100 nM
Cc1noc(C)c1-c1cc2nc(-c3ccc(NC(=O)Nc4ccc(C(=O)N(C)C)cc4)cc3)nc(N3CCOCC3)c2cc1F	201 to 10000 nM
CN(C)CCNC(=O)c1ccc(NC(=O)Nc2ccc(-c3nc(N4CCOCC4)c4ccc(-c5cncnc5)cc4n3)cc2F)cc1	201 to 10000 nM
COc1ncc(-c2ccc3c(N4CCOCC4)nc(-c4ccc(NC(=O)Nc5ccc(C(=O)N(C)C)cc5)c(F)c4)nc3c2)cn1	201 to 10000 nM
CN(C)C(=O)c1ccc(NC(=O)Nc2ccc(-c3nc(N4CCOCC4)c4ccc(-c5ccoc5)cc4n3)cc2)cc1	100 to 500 nM
